- System: A498 renal
- assay-notes: NCI-60 one-dose screen, 48 h (100 = growth as untreated, 0 = no growth, -100 = all killed)
- experimental-setup: 10 µM unless noted
This is part of a sample that, as a whole, favours compounds with a hit. Of some 83,000 tested, about 20% had one in any assay.
metric-name: growth (%)
Report the value in % with no unit label.

Reference set (5 entries):
{"columns": ["compound", "tested-target", "metric-name", "recorded-number"],
 "data": [
  ["O=C(Cc1c(-c2cccc([N+](=O)[O-])c2)n(-c2ncnc3c2c(-c2ccccc2)c(-c2ccccc2)n3Cc2ccccc2)[nH]c1=O)c1ccc(Cl)c(Cl)c1", "A498 renal", "growth", 70.3],
  ["O=C1c2cccc3c(N4CCN(c5ccccc5)CC4)ccc(c23)C(=O)N1c1cccc(-c2nn(-c3ccccc3)cc2-c2nc3ccccc3s2)c1", "A498 renal", "growth", 126],
  ["COc1cc(C2CC(c3ccc(F)cc3)=Nc3c(N)nc(N)nc3N2)ccc1Oc1nc(Nc2ccc(F)cc2)nc(N(C)C)n1 (stereo not given)", "A498 renal", "growth", 74],
  ["COc1cc(/C=N/NC(=O)c2ccc(OCc3nc4ccc(C)cc4[nH]3)cc2)cc(OC)c1OC", "A498 renal", "growth", 116],
  ["Nc1cc(-c2c[nH]c3ccc(Br)cc23)nc2cc(-c3c[nH]c4ccccc34)nn12", "A498 renal", "growth", -77.3]
]}

Quick one: give measured growth for Cc1ccc(C(=O)Nc2cccc(C(=O)NC(=S)Nc3ccc(S(N)(=O)=O)cc3)c2)cc1
109

Quickly give me recorded growth for COc1cc(/C=C/C(=O)c2cnn(-c3cc(=O)[nH]c4ccc(C)cc34)c2C)cc(OC)c1OC
8.36

Specify reported growth for the compound shown: CCCn1c(NC(=O)c2cccc(C(N)=O)c2)nc2ccc(CN3CCCCC3)cc21
159

* * *

- Tested on: SNB-75 CNS
- assay-notes: NCI-60 one-dose screen, 48 h
- experimental-setup: 10 µM unless noted
This is part of a sample that, as a whole, favours compounds with a hit. Of some 83,000 tested, about 20% had one in any assay. The source made the active and inactive calls. The calls were made as follows: active = growth percent below 10; inactive = the rest.
Outcome field: choose from active, inactive

Look over these answered cases.
{"columns": ["compound", "answer-label"],
 "data": [
  ["O=C(N/N=C/c1ccsc1)c1[nH]c2ccc(Br)cc2c1-c1ccccc1", "active"],
  ["O=c1[nH]c2ccccc2cc1CSc1ccccc1Nc1nccc(-c2ccc3c(c2)OCO3)n1", "active"],
  ["COC(=O)c1c(C(=O)OC)c2ccc3c4ccccc4ccc3n2c1C(=O)OC", "inactive"],
  ["COc1ccc(-c2cc(C(=O)N=Nc3c(O)[nH]c4ccc(Cl)cc34)c3ccccc3n2)cc1", "inactive"],
  ["Cc1ccc(-c2cc(C(=O)N=Nc3c(O)[nH]c4ccc(F)cc34)c3ccccc3n2)cc1", "inactive"],
  ["NS(=O)(=O)c1ccc(N2N=C(c3ccc(NC(=O)Nc4ccccc4)cc3)CC2c2ccc(Br)cc2)cc1 (centres undefined)", "active"],
  ["CCc1ccc(SC2c3cc(OC)ccc3Oc3nc(N)c(C#N)c(N)c32)cc1 (centres undefined)", "active"],
  ["O=C(Nc1ccc(-c2ccc3c(c2)NC(=O)/C3=C\\c2ccc[nH]2)cc1)Nc1cccc(Cl)c1", "inactive"]
]}

Each compound tested received a call. Report the one for CCCCCCCCCc1ccc(C(=O)Nc2cc(C)ccc2C(=O)OC)cc1 .
inactive

Could you check what this test reported for O=C(N/N=C/c1ccc(Cl)o1)c1[nH]c2ccc(Br)cc2c1-c1ccccc1 ?
active

Hi team, can someone confirm the assay call for C[C@@H](Nc1c(C#N)cnc2ccc(-c3cnc4[nH]ncc4c3)cc12)c1ccccc1 ?
active

* * *

Each item that follows carries a reported growth.
- System: ACHN renal
- assay-notes: NCI-60 one-dose screen, 48 h (100 = growth as untreated, 0 = no growth, -100 = all killed)
- experimental-setup: 10 µM unless noted
The panel holds about 83,000 compounds, 20% with a hit somewhere; the sample as a whole holds those more often.
I only need the number, in %, no unit after it.

For orientation, consider the following solved cases.
{"columns": ["molecule", "unit", "growth"],
 "data": [
  ["CCCN(CCC)S(=O)(=O)c1ccc(C(=O)O)cc1.CCCN(CCC)S(=O)(=O)c1ccc(C(=O)O)cc1.[Cl][Pt+2][Cl].[NH2-].[NH2-]", "%", 13.4],
  ["Cc1cc(N=C(N)c2ccccc2)ccc1OCCCCCCCCn1ccnc1", "%", 9.56]
]}

Entry O=C1CC(c2ccc(I)cc2)OC2C=Cc3ccccc3C12 (stereo unspecified) needs its growth filled in; supply it.
109

Identify growth associated with the molecule COc1ccc(N=Nc2c(N)nn3c(N)c(C#N)c(-c4ccc(F)cc4)nc23)cc1
53.5

Give a short answer stating reported growth for C#CCN(C)CCCOc1ccc(N(C)C(=O)c2cc(C(C)C)c(O)cc2O)cc1Cl .
15.7

Identify measured growth associated with COc1ccc(Nc2nnc(-c3c[nH]c4ccccc34)o2)cc1
89.6

Input C=CCSc1nnc(-c2c(C)nc3sccn23)o1 , output reported growth.
88.5

Name the recorded growth of the item S=C(Nc1ccc(OCc2nc3ccc(Cl)cc3[nH]2)cc1)NC1CCCCC1 in your answer.
-16

Provide only the value of recorded growth for COc1ccc(/C=C/c2nc3ccccc3n3c(-c4cccc([N+](=O)[O-])c4)nnc23)cc1
-97.5

Please give the documented growth of Cc1ccc(S(=O)(=O)N(CCn2ccnc2[N+](=O)[O-])CCn2ccnc2[N+](=O)[O-])cc1
101

* * *

- System: NCI-H322M lung
- assay-notes: NCI-60 one-dose screen, 48 h (100 = growth as untreated, 0 = no growth, -100 = all killed)
- experimental-setup: 10 µM unless noted
Compounds without any hit were thinned out: in the full panel of roughly 83,000, 20% have a hit.
Range-based classes on measured growth: interval 1 (below 50%), interval 2 (50% to below 80%), interval 3 (80% or more)

Form: Item = COc1ccc(C(=O)/C=C/c2ccc3c(c2)OCCO3)cc1S(N)(=O)=O ; Class = ?
interval 3

* * *

// values below are reported growth
- Test system: OVCAR-3 ovarian
- assay-notes: NCI-60 one-dose screen, 48 h (100 = growth as untreated, 0 = no growth, -100 = all killed)
- experimental-setup: 10 µM unless noted
This is part of a sample that, as a whole, favours compounds with a hit. Of some 83,000 tested, about 20% had one in any assay. The source made the active and inactive calls. Rule for the calls: active = growth percent below 10; inactive = the rest.

{"columns": ["compound", "growth"],
 "data": [
  ["COc1ccc(-c2cc(-c3cc(C(C)C)c(O)cc3C)nn2-c2ccc(S(N)(=O)=O)cc2)cc1", "8.38% (active)"],
  ["CN1CCc2c(sc3ncnc(N/N=C/c4cccc(Cl)c4Cl)c23)C1", "25.1% (inactive)"],
  ["Cc1ccc(C(=O)Nc2cc(-n3cnc(F)c3)cc(C(F)(F)F)c2)cc1C#Cc1cnc2cccnn12", "119% (inactive)"],
  ["COc1ccc(-c2nc3ccc(-c4nnc(SCc5ccccc5)o4)cc3[nH]2)cc1OC", "10.7% (inactive)"],
  ["Cn1cc(-c2cc(N)n3nc(-c4c[nH]c5ccc(F)cc45)cc3n2)c2cccnc21", "-76.1% (active)"]
]}

Give the observed growth of Fc1ccc(N2CC(Cn3c(C(F)(F)F)cc4c(Cl)ncnc43)C2)c(F)c1 for OVCAR-3 ovarian.
-66.2% (active)

Determine reported growth for COc1sc(/C=N/NC(=O)c2[nH]c3ccc(Br)cc3c2-c2ccccc2)cc1Br ; test system: OVCAR-3 ovarian.
-0.827% (active)

Fetch value of growth on OVCAR-3 ovarian for CC[C@]12C=CCN3CC[C@@]4(c5ccc(OC)cc5N(C)[C@H]4[C@@](O)(C(=O)OC)[C@@H]1OC(=O)CCC[P+](c1ccc(OC)cc1)(c1ccc(OC)cc1)c1ccc(OC)cc1)[C@@H]32 .
-73.6% (active)

State growth on OVCAR-3 ovarian. Entry: C[C@H]1[C@@H](CC(=O)N[C@@H](Cc2coc3ccccc23)B(O)O)O[C@@H]2OC3(C)CC[C@H]4[C@H](C)CC[C@@H]1[C@@]24O3
3.84% (active)

Output reported growth of the compound COc1ccc2[nH]cc(-c3cc4nc(-c5cn(C)c6ncc(Br)cc56)cc(N)n4n3)c2c1 on OVCAR-3 ovarian.
-67.3% (active)

* * *

- Tested on: OVCAR-8 ovarian
- assay-notes: NCI-60 one-dose screen, 48 h (100 = growth as untreated, 0 = no growth, -100 = all killed)
- experimental-setup: 10 µM unless noted
The panel holds about 83,000 compounds, 20% with a hit somewhere; the sample as a whole holds those more often.
Catalogue of growth readings, one per entry.
The answer is to be given in %; state only the numeric part.

{"columns": ["molecule", "tested-target", "recorded-number"],
 "data": [
  ["Nc1cc2ccccc2c(=O)n1NC(=O)c1ccc(Br)cc1", "OVCAR-8 ovarian", 98.6],
  ["COc1ccc(N=Nc2c(N)nn3c(N)c(C#N)c(-c4ccc(F)cc4)nc23)cc1", "OVCAR-8 ovarian", 29.6],
  ["C#CCN(C)CCCOc1ccc(N(C)C(=O)c2cc(C(C)C)c(O)cc2O)cc1Cl", "OVCAR-8 ovarian", 9.81],
  ["COc1ccc2[nH]cc(-c3cc(N)n4nc(-c5c[nH]c6ccccc56)cc4n3)c2c1", "OVCAR-8 ovarian", -43.9],
  ["COc1cc(CNC(=O)[C@]23CCC(C)(C)CC2C2=CCC4[C@@]5(C)CCC(OC(C)=O)C(C)(C)C5CC[C@@]4(C)[C@]2(C)CC3)ccc1OCc1cn(-c2ccc(Cl)cc2Cl)nn1 (stereo partly specified)", "OVCAR-8 ovarian", 102],
  ["Nc1nnc(CS(=O)(=O)c2ccccc2)s1", "OVCAR-8 ovarian", 97.4],
  ["CCCn1c(NC(=O)c2cccc(C(N)=O)c2)nc2ccc(CN3CCCCC3)cc21", "OVCAR-8 ovarian", 107],
  ["COc1ccc(NC(=O)N/N=C/c2c[nH]c3ccccc23)cc1", "OVCAR-8 ovarian", 20.5],
  ["C[C@@H]1CN(c2ccc3ncc(C#Cc4cncc(C(=O)Nc5ccc(CN6CCN(C)CC6)c(C(F)(F)F)c5)c4)n3n2)C[C@@H](C)O1", "OVCAR-8 ovarian", -71.8],
  ["O=C(N/N=C/c1ccc(Cl)o1)c1[nH]c2ccc(Br)cc2c1-c1ccccc1", "OVCAR-8 ovarian", -56.7]
]}

Would you please give the reported growth of Cc1ccc(C2CC(c3ccc(S(=O)(=O)NCCNc4nc(N(C)C)nc(N5CCOCC5)n4)cc3)=Nc3c(N)nc(N)nc3N2)cc1 (stereo unspecified) with OVCAR-8 ovarian?
56.3

Send back OVCAR-8 ovarian growth of COc1ccc(-c2nc3ccc(-c4nnc(SCc5ccccc5)o4)cc3[nH]2)cc1OC only.
6.86

Give the observed growth of COc1ccc(NC(=O)CSc2nnc(-c3ccc(-c4nc5ccc(Cl)cc5[nH]4)cc3)o2)cc1 for OVCAR-8 ovarian.
2.41

Report value only: growth, OVCAR-8 ovarian, CCC(=O)c1cc(C(=O)OC)c2ccc3c4ccccc4ccc3n12
71.5

Attribution: PubChem BioAssay (NCI)
